Assayed system: SARS-CoV-2-RBD tagged with a C-terminal Fc tag (ACRO Biosystems) (SARS-CoV-2), P0DTC2

Binder | Display unit | Kd
(Nb1C)2, homodimer of Nb1 (VHH72) with Tet3.0 at the C-terminus, joined by the 2-headed sTCO (PEG)12 linker (VHH, modifications not checked) VHH: QVQLQESGGGLVQAGGSLRLSCAASGRTFSEYAMGWFRQAPGKEREFVATISWSGGSTYYTDSVKGRFTISRDNAKNTVYLQMNSLKPDDTAVYYCAAAGLGTVVSEWDYDYYLDYWGQGTQVTVSS | nM | 132
(Nb113)2, homodimer of Nb1 (VHH72) with Tet3.0 at framework position Gln13, joined by the 2-headed sTCO (PEG)12 linker (VHH, modifications not checked) VHH: QVQLQESGGGLVQAGGSLRLSCAASGRTFSEYAMGWFRQAPGKEREFVATISWSGGSTYYTDSVKGRFTISRDNAKNTVYLQMNSLKPDDTAVYYCAAAGLGTVVSEWDYDYYLDYWGQGTQVTVSS | nM | 46
(Nb142)2, homodimer of Nb1 (VHH72) with Tet3.0 at framework position Gly42, joined by the 2-headed sTCO (PEG)12 linker (VHH, modifications not checked) VHH: QVQLQESGGGLVQAGGSLRLSCAASGRTFSEYAMGWFRQAPGKEREFVATISWSGGSTYYTDSVKGRFTISRDNAKNTVYLQMNSLKPDDTAVYYCAAAGLGTVVSEWDYDYYLDYWGQGTQVTVSS | nM | 27.5
(Nb1N)2, homodimer of Nb1 (VHH72) with Tet3.0 at the N-terminal position, joined by the 2-headed sTCO (PEG)12 linker (VHH, modifications not checked) VHH: SGTGSQVQLQESGGGLVQAGGSLRLSCAASGRTFSEYAMGWFRQAPGKEREFVATISWSGGSTYYTDSVKGRFTISRDNAKNTVYLQMNSLKPDDTAVYYCAAAGLGTVVSEWDYDYYLDYWGQGTQVTVSS | nM | 13.8
